test: Degradation of lansoprazole as a function of pH at 37 degrees C.; type: physicochemical; conditions: buffer; pH 8, 37 degrees C.
measurement type: half-life (h)
Give bare numbers, in h.

Please supply the value of reported half-life for the item Cc1c(OCC(F)(F)F)ccnc1C[S+]([O-])c1nc2ccccc2[nH]1 (stereo not shown) 37

---

experiment: Degradation of lansoprazole as a function of pH at 37 degrees C.; type: physicochemical; conditions: buffer; pH 5, 37 degrees C.
measurement type: half-life (min)
Numbers only, in min.

Please supply the value of reported half-life for the item Cc1c(OCC(F)(F)F)ccnc1C[S+]([O-])c1nc2ccccc2[nH]1 (stereo not shown) 31.2

---

test: Degradation of lansoprazole as a function of pH at 37 degrees C.; assay type: physicochemical; conditions: buffer; pH 7, 37 degrees C.
measurement type: half-life (h)
One number for each entry, in h.

Please supply the value of reported half-life for the item Cc1c(OCC(F)(F)F)ccnc1C[S+]([O-])c1nc2ccccc2[nH]1 (stereo not shown) [lansoprazole] 18
